Measured gMFIr HEK OE/par, listed per entry for reference.
Molecular target: T1, human PVRIG on cells (human, UniProt Q6DKI7 1-326)
T1 construct: whole, on cells; over-expressed on HEK cells or endogenous on Jurkat and CD8 T cells; also called hPVRIG; HEK hPVRIG cells
T1 sequence (looked up): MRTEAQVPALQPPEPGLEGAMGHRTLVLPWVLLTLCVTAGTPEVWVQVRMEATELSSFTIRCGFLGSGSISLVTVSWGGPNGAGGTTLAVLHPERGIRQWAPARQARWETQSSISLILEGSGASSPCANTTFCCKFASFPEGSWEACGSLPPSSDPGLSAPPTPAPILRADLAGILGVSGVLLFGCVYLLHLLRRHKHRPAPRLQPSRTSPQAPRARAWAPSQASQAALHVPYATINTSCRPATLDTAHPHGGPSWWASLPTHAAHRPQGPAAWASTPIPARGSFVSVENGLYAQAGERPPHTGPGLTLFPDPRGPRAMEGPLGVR
Assay: FACS, HEK hPVRIG over HEK parental cells, 3.3ug/ml

binder: CHA.7.550 (antibody, V domains shown) VH: QVQLQESGTELVKPGASVKLSCKASGYTFTSYWIHWVKQRPGQGLEWIGNINPSNGGTNYNEKFKSKAALTVDKSSSTAYMQLSSLTSEDSAVYYCARRGLPYFFDYWGQGTTLTVSS VL: DIVMTQSQKFMSTSVGDRVSVTCKGSQNVGYNVAWYQQKPGQSPKALVYSASDRHSGVPDRFAGSGSGTDFTLTISNVQSEDLAEYFCQQYNSYPLTFGAGTKLELK
gMFIr HEK OE/par: 27.7
//
binder: CHA.7.547 (antibody, V domains shown) VH: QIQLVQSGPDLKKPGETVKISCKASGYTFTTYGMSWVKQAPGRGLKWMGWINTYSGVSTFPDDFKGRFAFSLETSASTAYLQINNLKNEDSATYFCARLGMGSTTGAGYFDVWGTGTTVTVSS VL: ENVLTQSPAIMSASLGEKVTLSCRASSSVNYMYWYQQKSDASPKLWIYYTSNLAPGVPARFSGSGSGNSYSLTISSVEGEDAATYYCQQFTSSPWTFGGGTKLEIK
gMFIr HEK OE/par: 10.9
//
binder: CHA.7.548 (antibody, V domains shown) VH: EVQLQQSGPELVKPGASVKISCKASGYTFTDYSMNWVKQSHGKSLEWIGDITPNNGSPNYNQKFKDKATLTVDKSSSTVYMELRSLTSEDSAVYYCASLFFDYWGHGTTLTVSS VL: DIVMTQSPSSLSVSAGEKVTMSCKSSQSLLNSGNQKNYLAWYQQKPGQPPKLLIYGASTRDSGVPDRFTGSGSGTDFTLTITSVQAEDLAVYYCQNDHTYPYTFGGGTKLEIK
gMFIr HEK OE/par: 45.3
//
binder: CHA.7.544 (antibody, V domains shown) VH: QVQLKESGPGLVAPSQSLSITCTVSGFSLTSYAITWVRQPPGKGLEWLGVIWPGGGTNYNSALKSRLSISKDNSKSHLFLKMNSLQTDDTARYYCVRSYDGYLDWYFDVWGTGTTVTVSS VL: NIVMTQSPKSMSMSVGERVTLSCKASENVGTYVSWYQQKPDQSPKLLIYGASNRYTGVPDRFTGSGSATDFTLIISSVQAEDLSDYHCGQSYSYPYTFGGGTKLEII
gMFIr HEK OE/par: 42.6
//
binder: CHA.7.545 (antibody, V domains shown) VH: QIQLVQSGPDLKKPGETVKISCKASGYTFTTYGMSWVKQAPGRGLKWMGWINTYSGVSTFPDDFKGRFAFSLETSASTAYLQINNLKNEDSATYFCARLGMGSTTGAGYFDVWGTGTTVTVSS VL: DIVLTQSPAIMSASPGEKVTMTCSASSSVSSWYLHWYQQKSGASPKLWIYGTSNLASGVPARFSGSGSGTSYSLTISSVEAEDAATYYCQQYRSDPYTFGSGTKLEIK
gMFIr HEK OE/par: 44.3

Values from patent US20240075137A1
